Assay: 1H-NMR titration, CPX-Heme binding constant
Conditions: 1D 1H-NMR signal intensity change, 500 μM heme, DMSO-D6; read-out: dissociation constant between CPX and the heme group
ASSAY_ENDPOINT: pKd
A value of pKd is the negative decimal logarithm of a concentration given in moles per litre.

Can you look up the measured pKd of Cc1cc(C2CCCCC2)n(O)c(=O)c1 [ciclopirox] for me?
3.42
